The following molecules are shown together with reported IC50 values.
# TARGET_DESC: human recombinant Monoacylglycerol Lipase (Homo sapiens, UniProt Q99685)
# Sequence (Q99685 whole entry): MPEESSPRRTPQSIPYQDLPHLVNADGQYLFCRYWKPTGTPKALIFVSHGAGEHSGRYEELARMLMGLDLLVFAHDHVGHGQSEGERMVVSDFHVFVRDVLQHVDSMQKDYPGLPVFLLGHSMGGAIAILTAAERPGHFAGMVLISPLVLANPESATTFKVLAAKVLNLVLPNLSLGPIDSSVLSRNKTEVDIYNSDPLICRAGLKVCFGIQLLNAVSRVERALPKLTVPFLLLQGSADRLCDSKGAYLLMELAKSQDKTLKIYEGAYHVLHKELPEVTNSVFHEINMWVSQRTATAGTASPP
# MEASUREMENT_NOTES: MAGL enzymatic assay (IC50; 7-HCA substrate added at T=0 min or T=30 min)
# Assay type: biochemical
# CONDITION_PARAMETERS: MAGL (T = 30 min) IC50, substrate 7-HCA added after 30 minute incubation (T=30 min); geometric mean of 2-5 determinations unless otherwise indicated
MEASURED_PARAMETER: IC50 (nM)

[[record]]
molecule = "CN(C1CC2(CCN(C(=O)O[C@H](CO)C(F)(F)F)CC2)C1)S(=O)(=O)C(C)(C)C [Example 61]"
result = 1

[[record]]
molecule = "O=C(O[C@H](CO)C(F)(F)F)N1CCC2(CC1)CC(n1cc(Cl)cn1)CO2 (single isomer, unassigned) [Example 22]"
result = 4

[[record]]
molecule = "CN(C(=O)C1CCCC1)[C@H]1COC2(CCN(C(=O)O[C@H](CO)C(F)(F)F)CC2)C1 [Example 5]"
result = 7

[[record]]
molecule = "O=C(O[C@H](CO)C(F)(F)F)N1CCC2(CC1)CC(c1cccc(C(F)(F)F)n1)CO2 (single isomer, unassigned) [Example 14]"
result = 1

